# Lookup of reported EC50 keyed by entry
# System: SARS coronavirus
# method.notes: microbe, parasite or virus in culture
# Assay type: cell-based
# protocol.conditions: Severe acute respiratory syndrome coronavirus, read-out: In-Vitro Antiviral Screening Result (EC50) F

C=C1C(N2CCOCC2)CC2[C@](C)(CC[C@@H](O)[C@@]2(C)CO)C1/C=C/C1=CCOC1=O (stereo partly shown)
< 50 µg/mL
C=C1CCC2C(C)(CO)C(O)CCC2(C)C1/C=C/C1=CC(=C\c2ccc(OC3OC(CO)C(O)C(O)C3O)cc2)/OC1=O (stereo not shown)
< 50 µg/mL
C=C1CCC2C3(C)COC(c4ccc(OC5OC(CO)C(O)C(O)C5O)cc4)OC3CCC2(C)C1C/C=C1/C(=O)OCC1O (stereo not shown)
< 50 µg/mL
CC(NC1CC2[C@](C)(CC[C@@H](O)[C@@]2(C)CO)C(/C=C/C2=CC(=C\c3cnc(N4CCN(C)CC4)nc3)/OC2=O)C12CO2)C(=O)NC1=NCC=N1 (stereo partly shown)
< 50 µg/mL

Please indicate EC50 recorded for C=C1CCC2[C@](C)(CC[C@@H](O)[C@@]2(C)CO)C1/C=C/C1=CC(=C\c2cnc(N)[nH]c2=O)/OC1=O (stereo partly shown)
< 100 µg/mL

Please indicate EC50 recorded for C=C1CCC2[C@](C)(CC[C@@H](O)[C@@]2(C)CO)C1/C=C/C1=CC(=C\C2=CN3CC(=O)N(C)C3C=C2)/OC1=O (stereo partly shown)
< 50 µg/mL

Please indicate EC50 recorded for C[C@]12CC[C@@H](O)[C@@](C)(CO)C1CCC1(CO1)C2/C=C/C1=CC(=C\c2ccc(-n3ccnc3)cc2)/OC1=O (stereo partly shown)
< 100 µg/mL

###

# Test system: Rift Valley fever virus
# method.notes: microbe, parasite or virus in culture
# Format: cell-based
# protocol.conditions: read-out: In-Vitro Antiviral Screening Result (EC50) E
# Lookup of reported EC50 keyed by entry

Consider the worked cases shown below.
C[C@]12CC[C@@H](O)[C@@](C)(CO)C1CCC1(CO1)C2/C=C/C1=CC(=C\c2cnc(N3CCCC3CO)nc2)/OC1=O (stereo partly drawn)
< 50 µg/mL
C=C1CCC2[C@](C)(CC[C@@H](O)[C@@]2(C)CO)C1/C=C/C1=CC(=C\c2ccc(N(C)C)cc2)/OC1=O (stereo partly drawn)
< 50 µg/mL
C=C1CCC2[C@](C)(CC[C@@H](O)[C@@]2(C)CO)C1/C=C/C1=CC(=C\c2cn(C)c3nc(N)ncc23)/OC1=O (stereo partly drawn)
< 50 µg/mL
C=C1C(N2CCOCC2)CC2[C@](C)(CC[C@@H](O)[C@@]2(C)CO)C1/C=C/C1=CCOC1=O (stereo partly drawn)
< 50 µg/mL

Please indicate EC50 recorded for C=C1C(NC(C)C(=O)NC2=NCC=N2)CC2[C@](C)(CC[C@@H](O)[C@@]2(C)CO)C1/C=C/C1=CC(=C\c2ccc(N(C)C)cc2)/OC1=O (stereo partly drawn)
< 100 µg/mL

Please indicate EC50 recorded for C=C1CCC2[C@](C)(CC[C@@H](O)[C@@]2(C)CO)C1/C=C/C1=CC(=C\C2=CN3CC(=O)N(C)C3C=C2)/OC1=O (stereo partly drawn)
< 50 µg/mL

###

# Lookup of reported EC50 keyed by entry
# Tested on: Rift Valley fever virus
# method.notes: microbe, parasite or virus in culture
# Assay type: cell-based
# protocol.conditions: read-out: In-Vitro Antiviral Screening Result (EC50) E

CC(=O)OCC1(C)C(OC(C)=O)CCC2(C)C(/C=C/C3=CCOC3=O)C3C(=Nc4cncn43)CC12 (centres unmarked)
> 100 µg/mL
C=C1C(N2CCOCC2)CC2[C@](C)(CC[C@@H](O)[C@@]2(C)CO)C1/C=C/C1=CC(=C\c2ccc(N(C)C)cc2)/OC1=O (some centres unmarked)
< 50 µg/mL
CC(NC1CC2[C@](C)(CC[C@@H](O)[C@@]2(C)CO)C(/C=C/C2=CC(=C\c3cnc(N4CCN(C)CC4)nc3)/OC2=O)C12CO2)C(=O)NC1=NCC=N1 (some centres unmarked)
< 50 µg/mL
C[C@]12CC[C@@H](O)[C@@](C)(CO)C1CCC1(CO1)C2/C=C/C1=CC(=C\c2cnc(N)[nH]c2=O)/OC1=O (some centres unmarked)
> 100 µg/mL
CN1C(=O)CN2C=C(/C=C3C=C(/C=C/C4C5(CCC6[C@]4(C)CC[C@@H](O)[C@@]6(C)CO)CO5)C(=O)O\3)C=CC21 (some centres unmarked)
> 100 µg/mL

// switching to the query compound
Please indicate EC50 recorded for C=C1CCC2C3(C)COC(c4ccc(OC5OC(CO)C(O)C(O)C5O)cc4)OC3CCC2(C)C1C/C=C1/C(=O)OCC1O (centres unmarked)
< 50 µg/mL

###

# Test system: Rift Valley fever virus
# method.notes: microbe, parasite or virus in culture
# Format: cell-based
# protocol.conditions: read-out: In-Vitro Antiviral Screening Result (EC50) E
# Lookup of reported EC50 keyed by entry

C=C1CCC2C(C)(CO)C(O)CCC2(C)C1/C=C/C1=CC(=C\c2ccc(OC3OC(CO)C(O)C(O)C3O)cc2)/OC1=O (stereo not drawn)
> 100 µg/mL
CN(C)c1ccc(/C=C2C=C(/C=C/C3C4(CO4)C(N4CCOCC4)CC4[C@]3(C)CC[C@@H](O)[C@@]4(C)CO)C(=O)O\2)cc1 (stereo partly drawn)
< 100 µg/mL

Please indicate EC50 recorded for C[C@]12CC[C@@H](O)[C@@](C)(CO)C1CCC1(CO1)C2/C=C/C1=CC(=C\c2ccc(-n3ccnc3)cc2)/OC1=O (stereo partly drawn)
< 50 µg/mL

###

# Lookup of reported EC50 keyed by entry
# System: Rift Valley fever virus
# method.notes: microbe, parasite or virus in culture
# Assay type: cell-based
# protocol.conditions: read-out: In-Vitro Antiviral Screening Result (EC50) E

Consider the worked cases shown below.
C=C1CCC2[C@](C)(CC[C@@H](O)[C@@]2(C)CO)C1/C=C/C1=CC(=C\c2ccc(N(C)C)cc2O)/OC1=O (stereo partly shown)
> 100 µg/mL
C=C1CCC2C(C)(CO)C(O)CCC2(C)C1/C=C/C1=CC(=C\c2ccc(Cl)cc2Cl)/OC1=O (stereo not shown)
> 100 µg/mL
CCN(CC)c1ccc(/C=C2C=C(/C=C/C3C4(CCC5[C@]3(C)CC[C@@H](O)[C@@]5(C)CO)CO4)C(=O)O\2)c(O)c1 (stereo partly shown)
< 100 µg/mL
C=C1CCC2C(C)(CO)C(O)CCC2(C)C1CC(Nc1cccc(Cl)c1)C1=CCOC1=O (stereo not shown)
< 10 µg/mL

Please indicate EC50 recorded for C=C1CCC2[C@](C)(CC[C@@H](O)[C@@]2(C)CO)C1/C=C/C1=CC(=C\c2cnc(N)[nH]c2=O)/OC1=O (stereo partly shown)
< 100 µg/mL

Please indicate EC50 recorded for C=C1CCC2[C@](C)(CC[C@@H](O)[C@@]2(C)CO)C1/C=C/C1=CC(=C\c2ccc(-n3ccnc3)cc2)/OC1=O (stereo partly shown)
< 50 µg/mL

Please indicate EC50 recorded for CN(C)c1ccc(/C=C2C=C(/C=C/C3C4(CCC5[C@]3(C)CC[C@@H](O)[C@@]5(C)CO)CO4)C(=O)O\2)c(O)c1 (stereo partly shown)
< 100 µg/mL

###

# Lookup of reported EC50 keyed by entry
# System: SARS coronavirus
# method.notes: microbe, parasite or virus in culture
# Assay type: cell-based
# protocol.conditions: Severe acute respiratory syndrome coronavirus, read-out: In-Vitro Antiviral Screening Result (EC50) F

Consider the worked cases shown below.
C=C1CCC2C(C)(CO)C(O)CCC2(C)C1CC(Nc1cccc(Cl)c1)C1=CCOC1=O (stereo not drawn) [Example 53]
< 50 µg/mL
CN1C(=O)CN2C=C(/C=C3C=C(/C=C/C4C5(CCC6[C@]4(C)CC[C@@H](O)[C@@]6(C)CO)CO5)C(=O)O\3)C=CC21 (stereo partly drawn) [Example 68]
< 50 µg/mL
C=C1C(N2CCOCC2)CC2[C@](C)(CC[C@@H](O)[C@@]2(C)CO)C1/C=C/C1=CC(=C\c2ccc(N(C)C)cc2)/OC1=O (stereo partly drawn) [Example 124]
< 50 µg/mL
C=C1CCC2[C@](C)(CC[C@@H](O)[C@@]2(C)CO)C1/C=C/C1=CC(=C\c2cnc(N3CCCC3CO)nc2)/OC1=O (stereo partly drawn) [Example 65]
< 50 µg/mL

Please indicate EC50 recorded for CN(C)c1ccc(/C=C2C=C(/C=C/C3C4(CO4)C(N4CCOCC4)CC4[C@]3(C)CC[C@@H](O)[C@@]4(C)CO)C(=O)O\2)cc1 (stereo partly drawn) [Example 76]
< 50 µg/mL

Please indicate EC50 recorded for CN1CCN(c2ccc(/C=C3C=C(/C=C/C4C5(CCC6[C@]4(C)CC[C@@H](O)[C@@]6(C)CO)CO5)C(=O)O\3)cc2)CC1 (stereo partly drawn) [Example 71]
< 100 µg/mL
